Values from patent US6841567B1

For reference, pIC50 measured on baculovirus-expressed human trkA cytoplasmic domain (Homo sapiens):
One number for each entry, as −log10 of the molar value.

Example entries begin here.
# molecule, pIC50
measured = [
    ("CCNC(=O)OCC1(C2c3ccccc3-c3c4c(c5c6ccccc6n(C(=O)NCC)c5c32)CNC4=O)CCCO1 (stereo not shown)", 6.61),
    ("O=C1NCc2c1c1c(c3[nH]c4ccccc4c23)C(C2(O)CCCO2)c2ccccc2-1 (stereo not shown)", 6.83),
    ("CCOC1CCC(CO)(C2c3cc(OC)ccc3-c3c4c(c5c([nH]c6ccccc65)c32)CNC4=O)O1 (single isomer, unassigned)", 7.23),
    ("COCCOCOCC1(C2c3ccccc3-c3c4c(c5c([nH]c6ccccc65)c32)CNC4=O)CCC(=O)O1 (mixture of isomers)", 6.76),
    ("O=C1CCC(C2c3ccccc3-c3c4c(c5c([nH]c6ccccc65)c32)CNC4=O)O1 (stereo not shown)", 7.05),
    ("CC1(C2c3ccccc3-c3c4c(c5c([nH]c6ccccc65)c32)C(=O)NC4)CCCO1 (stereo not shown)", 6.72),
]

Per the records, this molecule ( CCOC1CCC(C2c3ccccc3-c3c4c(c5c([nH]c6ccccc65)c32)CNC4=O)O1 (stereo not shown) [II-40b] ) has pIC50 equal to 7.23

====

target-under-test: protein kinase C (UBI; mixed isozymes of a, b, g)
assay-notes: Inhibition of protein kinase C activity (Millipore Multiscreen TCA in-plate assay)
pIC50: −log10 of the molar value.
Would you mind telling me the reported pIC50 of each entry?

Completed entries (count: 3):
# molecule, target-under-test, pIC50
rows = [
    ("O=C1NCc2c1c1c(c3[nH]c4ccccc4c23)C(C2(CO)CCCO2)c2ccccc2-1 (centres unmarked) [II-21]", "protein kinase C (UBI; mixed isozymes of a, b, g)", "< 5.00"),
    ("CC1(C2c3ccccc3-c3c4c(c5c([nH]c6ccccc65)c32)CNC4=O)CCCO1 (racemic)", "protein kinase C (UBI; mixed isozymes of a, b, g)", "< 5.00"),
    ("O=C1NCc2c1c1c(c3[nH]c4ccccc4c23)C(C2(CO)CCCO2)c2ccccc2-1 (single isomer, unassigned) [II-35]", "protein kinase C (UBI; mixed isozymes of a, b, g)", "< 5.00"),
]

For every listed record, write down its pIC50.
1. O=C1NCc2c1c1c(c3[nH]c4ccccc4c23)C(C2CCCO2)c2ccccc2-1 (centres unmarked)
2. O=C1NCc2c1c1c(c3[nH]c4ccccc4c23)C(C2(O)CCSCC2)c2ccccc2-1 (centres unmarked)
3. O=C1NCc2c1c1c(c3[nH]c4ccccc4c23)C(C2(O)CCc3ccccc3C2)c2ccccc2-1 (centres unmarked)
4. O=C1NCc2c1c1c(c3[nH]c4ccccc4c23)C(C2CCC(O)O2)c2ccccc2-1 (single isomer, unassigned) [II-38]
5. O=C1NCc2c1c1c(c3[nH]c4ccccc4c23)C(C2(C(O)CO)CCCO2)c2ccccc2-1 (centres unmarked)
6. O=C1NCc2c1c1c(c3[nH]c4ccccc4c23)C(C2(O)CCCO2)c2ccccc2-1 (centres unmarked)

1. 5.15
2. < 5.00
3. < 5.00
4. < 5.00
5. 5.68
6. 5.21

The following molecules each have a reported value; give each one's pIC50.
1. COCCOCc1ccc2c(c1)c1c3c(c4c(c1n2CC1CO1)Cc1ccccc1-4)C(=O)NC3 (racemic)
2. O=C1NCc2c1c1c(c3[nH]c4ccccc4c23)C(C2(CO)CCCO2)c2ccccc2-1 (single isomer, unassigned) [II-36]

1: 5.87; 2: < 5.00

====

target-under-test: VEGF receptor (human flk-1, KDR, VEGFR2) kinase domain (Homo sapiens)
Construct: VEGF receptor (human flk-1, KDR, VEGFR2) kinase domain; made in house; host or cells: baculovirus expression system
Sequence (P35968 834-1162 limits assumed): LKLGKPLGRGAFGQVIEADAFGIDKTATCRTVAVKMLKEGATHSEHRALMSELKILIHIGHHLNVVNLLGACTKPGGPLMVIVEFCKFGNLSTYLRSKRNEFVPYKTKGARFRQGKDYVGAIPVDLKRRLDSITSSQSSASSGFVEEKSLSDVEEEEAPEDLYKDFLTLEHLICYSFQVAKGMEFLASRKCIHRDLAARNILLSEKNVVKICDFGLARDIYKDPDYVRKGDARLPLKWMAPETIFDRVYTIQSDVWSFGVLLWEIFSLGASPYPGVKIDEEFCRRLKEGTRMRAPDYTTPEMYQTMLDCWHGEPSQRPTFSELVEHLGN
assay-notes: Inhibition of vascular endothelial growth factor receptor kinase activity (ELISA)
Assay type: biochemical
experimental-context: 300 nM compound; read-out: VEGF receptor kinase activity % Inh. @ 300 nM (values in parentheses)
parameter: inhibition at 0.3 µM (%)
Answers are plain numbers, in %.

Past entries and their recorded results:
# compound, measured
data = [
    ("O=C1NCc2c1c1c(c3c2c2ccccc2n3CC2CC2)C(CC2CC2)c2ccccc2-1 (centres unmarked)", 26),
    ("O=C1NCc2c1c1c(c3[nH]c4ccccc4c23)C(C2(CO)CCCO2)c2ccccc2-1 (single isomer, unassigned)", 55),
    ("CC1(C2c3ccccc3-c3c4c(c5c([nH]c6ccccc65)c32)CNC4=O)CC(O)(CO)CO1 (centres unmarked)", 48),
    ("CC1(C2c3ccccc3-c3c4c(c5c([nH]c6ccccc65)c32)CNC4=O)CCCO1 (single isomer, unassigned) [II-30a]", 59),
    ("CCNC(=O)n1c2ccccc2c2c3c(c4c(c21)C(C1(CO)CCCO1)c1ccccc1-4)C(=O)NC3 (centres unmarked)", 49),
]

Respectfully, I request inhibition at 0.3 µM for each entry included below.
1. O=C1NCc2c1c1c(c3[nH]c4ccccc4c23)C(C2(CCCCl)CCCO2)c2ccccc2-1 (centres unmarked)
2. COC(=O)[C@H]1CSC(CCn2c3ccccc3c3c4c(c5c(c32)Cc2ccccc2-5)C(=O)NC4)N1 (some centres unmarked)
3. O=C1CCC(C2c3ccccc3-c3c4c(c5c([nH]c6ccccc65)c32)CNC4=O)O1 (centres unmarked)

46
65
56

====

target-under-test: baculovirus-expressed human trkA cytoplasmic domain (Homo sapiens)
Sequence (P04629 440-796 limits assumed): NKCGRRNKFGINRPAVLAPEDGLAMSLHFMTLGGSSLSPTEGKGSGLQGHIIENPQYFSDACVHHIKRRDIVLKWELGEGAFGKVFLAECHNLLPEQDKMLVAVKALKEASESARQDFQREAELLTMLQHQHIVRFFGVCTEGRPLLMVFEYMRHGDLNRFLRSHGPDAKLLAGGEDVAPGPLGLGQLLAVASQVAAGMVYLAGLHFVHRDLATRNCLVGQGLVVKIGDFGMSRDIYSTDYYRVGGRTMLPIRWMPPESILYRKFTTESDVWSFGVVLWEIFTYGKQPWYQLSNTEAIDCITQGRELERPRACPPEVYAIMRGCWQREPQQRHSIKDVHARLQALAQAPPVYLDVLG
For each record, write down the corresponding IC50.
Numbers only, in nM.

Previously resolved entries follow.
# compound, measured
measured = [
    ("O=C1NCc2c1c1c(c3[nH]c4ccccc4c23)C(C2(CO)CCCO2)c2ccccc2-1 (single isomer, unassigned) [II-35]", 78),
    ("O=C1NCc2c1c1c(c3[nH]c4ccccc4c23)C(C2OCCC2O)c2ccccc2-1 (mixture of isomers)", 110),
    ("O=C1NCc2c1c1c(c3[nH]c4ccccc4c23)C(C2CSCC2O)c2ccccc2-1 (centres unmarked)", 139),
    ("O=C1NCc2c1c1c(c3[nH]c4ccccc4c23)C(C2(O)CCN(Cc3ccccc3)CC2)c2ccccc2-1 (centres unmarked)", 64),
]

Query O=C1NCc2c1c1c(c3c2c2ccccc2n3CC2CO2)Cc2ccccc2-1 (racemic) [II-01a] yields IC50 of 92
